# Procedure Text: Peptide assay and peptide impurities by RP-HPLC
# Type: physicochemical
# Assay Conditions: sized-vesicle preparation stored at −20° C. ± 5° C., 12 months
Result Type: Peptide Assay (RP-HPLC) (mg/mL)

[[record]]
sequence_code = "STFKNWPFL (Survivin HLA-A24) [SurA24, survivin peptide antigen [HLA-A24]]"
result_type = "Peptide Assay (RP-HPLC)"
observed_measurement = 0.97

[[record]]
sequence_code = "LMLGEFLKL (Survivin HLA-A2 (modified)) [SurA2.M, survivin peptide antigen [HLA-A2]]"
result_type = "Peptide Assay (RP-HPLC)"
observed_measurement = 0.89

[[record]]
sequence_code = "FTELTLGEF (Survivin HLA-A1 (modified)) [SurA1.T, survivin peptide antigen [HLA-A1]]"
result_type = "Peptide Assay (RP-HPLC)"
observed_measurement = 0.99

[[record]]
sequence_code = "RISTFKNWPK (Survivin HLA-A3 (modified)) [SurA3.K, survivin peptide antigen [HLA-A3], added after sizing]"
result_type = "Peptide Assay (RP-HPLC)"
observed_measurement = 0.97

[[record]]
sequence_code = "LPPAWQPFL (Survivin HLA-B7) [SurB7, survivin peptide antigen [HLA-B7]]"
result_type = "Peptide Assay (RP-HPLC)"
observed_measurement = 1.01

